# Tested on: NCI-H1651
# PROCEDURE TEXT: relative viability (nuclei count vs DMSO), 5 days (fraction); higher = more cells survive
# CONDITION DETAILS: first compound 0.03162 µM
Mark Fulfilled only when relative viability stays strictly below 0.7. Values equal to the cut-off are Not fulfilled.

COMPOUND	CLASS
O=c1cc(N2CCOCC2)oc2c(-c3cccc4c3sc3ccccc34)cccc12 + COc1cc2c(Oc3ccc(NC(=O)C4(C(=O)Nc5ccc(F)cc5)CC4)cc3F)ccnc2cc1OCCCN1CCOCC1 [Foretinib] (partner 0.25 µM)	Not fulfilled
CCN(CC)CCCCNc1ncc2cc(-c3cc(OC)cc(OC)c3)c(NC(=O)NC(C)(C)C)nc2n1 + CCNC(=O)c1noc(-c2cc(C(C)C)c(O)cc2O)c1-c1ccc(CN2CCOCC2)cc1 [Luminespib] (partner 0.01 µM)	Not fulfilled
CCN(CC)CCCCNc1ncc2cc(-c3cc(OC)cc(OC)c3)c(NC(=O)NC(C)(C)C)nc2n1 + CC(=O)Nc1cccc(-n2c(=O)n(C3CC3)c(=O)c3c(Nc4ccc(I)cc4F)n(C)c(=O)c(C)c32)c1 [Trametinib] (partner 0.02 µM)	Not fulfilled
CCN(CC)CCCCNc1ncc2cc(-c3cc(OC)cc(OC)c3)c(NC(=O)NC(C)(C)C)nc2n1 + O=C(CCCCCCC(=O)Nc1ccccc1)NO [Vorinostat] (partner 1 µM)	Fulfilled
O=c1cc(N2CCOCC2)oc2c(-c3cccc4c3sc3ccccc34)cccc12 + O=C(c1cc(Cc2n[nH]c(=O)c3ccccc23)ccc1F)N1CCN(C(=O)C2CC2)CC1 [Olaparib] (partner 8 µM)	Fulfilled
CCN(CC)CCCCNc1ncc2cc(-c3cc(OC)cc(OC)c3)c(NC(=O)NC(C)(C)C)nc2n1 + COc1cccc2cc(-c3nc([C@H]4CC[C@H](C(=O)O)CC4)n4ncnc(N)c34)[nH]c12 [OSI-027] (partner 0.5 µM)	Not fulfilled
